test: Inhibition of bovine brain PP2B; set-up: species or system Bos taurus
endpoint: IC50 (µM)
Field: numeric (µM). Do not append units.

Some solved cases for reference:
>  <compound>
Cc1cc(C)c(NC(=O)C2C(C(=O)O)[C@H]3CC[C@@H]2O3)c(C)c1 (stereo partly drawn)

>  <unit annotation>
µM

>  <IC50>
89

$$$$
>  <compound>
O=C1OC(=O)C2C3CCC(O3)C12 (stereo not drawn) [DEMETHYL-CANTHARIDIN]

>  <unit annotation>
µM

>  <IC50>
31

$$$$

Given the compound O=C(Nc1ccc(N2CCOCC2)cc1)C1C(C(=O)O)[C@H]2CC[C@@H]1O2 (stereo partly drawn) , what is its reported IC50?
42
